Every entry's value here was drawn from patent US8324250B2.

target: recombinant human NK3 receptor (Homo sapiens); experiment: [3H]SR142801 competition binding assay; conditions: membranes from HEK293 cells transiently expressing recombinant human NK3 receptor; [3H]SR142801 radioligand; 75 min at RT; Ki by Cheng-Prussoff; read-out: Data Ki (hNK-3 receptor affinity)
measurement type: Ki (nM)

>>> reported_value("CC(C)C(NC(=O)C1(c2ccc(F)cc2)CCN(C(=O)c2ccc(N3CCCCC3=O)cc2)CC1)c1ccc(F)cc1 (stereo not shown)")
54

A = C[C@H](NC(=O)C1(c2ccccc2)CCN(C(=O)c2ccc(N3CCS(=O)(=O)CC3)cc2)CC1)c1ccccc1
B = Cc1nc(-c2ccc(C(=O)N3CCC(C(=O)N[C@@H](C)c4ccc(F)cc4)(c4ccccc4)CC3)cc2)no1
C = Cc1noc(-c2ccc(C(=O)N3CCC(C(=O)NC(C)c4ccc(F)c(C(F)(F)F)c4)(c4ccc(F)cc4)CC3)cc2)n1 (stereo not shown)
Endpoint returns the given molecules ordered by ascending Ki. Please express your ranking as an ordered list of the labels. B, A, C

---

target: recombinant human NK3 receptor (Homo sapiens); construct: expressed in transfected cells; host or cells: HEK293 cells (transient expression), membranes; assay: [3H]SR142801 competition binding assay; settings: membranes from HEK293 cells transiently expressing recombinant human NK3 receptor; [3H]SR142801 radioligand; 75 min at RT; Ki by Cheng-Prussoff; read-out: Data Ki (hNK-3 receptor affinity)
measurement type: Ki (nM)

Here is how some compounds turned out for Ki.
>>> reported_value("C[C@H](NC(=O)C1(c2ccccc2)CCN(C(=O)c2ccc(N3CCN(C)CC3)cc2)CC1)c1ccccc1")
98.1
>>> reported_value("Cc1nc(-c2ccc(C(=O)N3CCC(C(=O)N[C@H](c4cccc(F)c4)C4CC4)(c4ccc(F)cc4)CC3)cc2)no1")
7.1
>>> reported_value("C[C@H](NC(=O)C1(c2ccccc2)CCN(C(=O)N2CCN(c3ccc(F)cc3)CC2)CC1)c1ccc(F)cc1")
8.7
>>> reported_value("Cc1nc(-c2ccc(C(=O)N3CCC(C(=O)N[C@@H](C)c4cccc(F)c4)(c4ccc(F)cc4)CC3)cc2)no1")
17
>>> reported_value("C[C@H](NC(=O)C1(c2ccccc2)CCN(C(=O)N2CCN(c3ccc(Cl)cn3)CC2)CC1)c1ccccc1")
79.8

1 = C[C@H](NC(=O)C1(c2ccccc2)CCN(C(=O)N2CCN(c3ccccc3)CC2)CC1)c1ccccc1
2 = C[C@H](NC(=O)C1(c2ccc(F)cc2)CCN(C(=O)c2ccc(-c3ccc(F)cc3)cc2)CC1)C1CCCCC1
Pick one, 1 or 2 : lowest reported Ki. Respond using the label that marks the chosen record. 2
(2: 5.1 nM, 1: 36.3 nM)

---

molecular target: recombinant human NK3 receptor (Homo sapiens, UniProt P29371); test: [3H]SR142801 competition binding assay; details: membranes from HEK293 cells transiently expressing recombinant human NK3 receptor; [3H]SR142801 radioligand; 75 min at RT; Ki by Cheng-Prussoff; read-out: Data Ki (hNK-3 receptor affinity)
Sequence (P29371 whole entry): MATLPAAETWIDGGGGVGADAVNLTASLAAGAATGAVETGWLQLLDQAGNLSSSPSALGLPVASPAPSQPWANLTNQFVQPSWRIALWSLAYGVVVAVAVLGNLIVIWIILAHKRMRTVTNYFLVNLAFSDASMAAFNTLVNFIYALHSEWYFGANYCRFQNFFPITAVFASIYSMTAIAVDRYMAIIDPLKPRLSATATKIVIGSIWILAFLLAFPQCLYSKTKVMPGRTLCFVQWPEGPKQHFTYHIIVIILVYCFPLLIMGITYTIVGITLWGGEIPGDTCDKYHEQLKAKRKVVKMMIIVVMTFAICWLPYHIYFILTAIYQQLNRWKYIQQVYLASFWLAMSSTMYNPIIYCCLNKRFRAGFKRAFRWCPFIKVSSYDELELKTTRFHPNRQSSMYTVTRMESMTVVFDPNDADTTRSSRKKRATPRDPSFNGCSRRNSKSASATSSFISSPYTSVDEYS
measurement type: Ki (nM)

Answered examples (4):
>>> reported_value("C[C@H](NC(=O)C1(c2ccccc2)CCN(C(=O)N2CCC(N3CCS(=O)(=O)CC3)CC2)CC1)c1ccc(F)cc1 [Example 223]")
6
>>> reported_value("C[C@H](NC(=O)C1(c2ccccc2)CCN(C(=O)C2CCN(c3ccc(C#N)cn3)CC2)CC1)c1ccccc1 [Example 61]")
37.9
>>> reported_value("C[C@H](NC(=O)C1(c2ccccc2)CCN(C(=O)N2CCN(c3ccc(F)cc3)CC2)CC1)C1CCCCC1 [Example 233]")
5.3
>>> reported_value("O=C(c1ccc(-c2ccc(F)cc2)cc1)N1CCC(C(=O)N[C@@H](CO)c2ccccc2)(c2ccc(F)cc2)CC1 [Example 140]")
7.8

P = C[C@H](NC(=O)C1(c2ccccc2)CCN(C(=O)c2ccc(-c3ccn(C)n3)cc2)CC1)c1ccccc1 [Example 69]
Q = O=C(c1ccc(-c2ccc(F)cc2)cc1)N1CCC(C(=O)NC(c2ccccc2)C2CC2)(c2ccc(F)cc2)CC1 (centres unmarked) [Example 147]
Larger number for Ki: P , or Q ? Could you answer with the label of the item you picked? P
